Tested on: SF-539
Test: NCI tumour cell line growth inhibition, 48 h
Active and inactive are the calls of the source. Rule as the data show it: active = GI50 up to about 1.1 µM and inactive = higher.
measure.name: GI50

These solved cases illustrate the format of a correct answer.
- compound: "COc1cc2oc(=O)cc(C)c2cc1O"
  value: "> 100 µM (inactive)"
- compound: "Cn1c2cc(Cl)ccc2c2ccc3c(c21)C(=O)C=CC3=O"
  value: "> 55 µM (inactive)"
- compound: "CN(C)CC(/C(Cc1ccccc1)=N\\NC(=S)NN)c1ccccc1 (stereo not given)"
  value: "> 100 µM (inactive)"
- compound: "CC1(C)O[C@H]([C@H](O)c2nnc3ccc(Cl)nn23)[C@@H]([C@H]2COC(C)(C)O2)O1"
  value: "> 100 µM (inactive)"
- compound: "COc1c(O)ccc2c1CN1CCc3cc4c(cc3C1C2)OCO4 (stereo not given)"
  value: "40 µM (inactive)"
- compound: "N#CC(NC12CC3CC(CC(C3)C1)C2)c1ccccc1C(F)(F)F (stereo not given)"
  value: "> 100 µM (inactive)"

Problem: Query for SF-539: what GI50 does the record show for "Cc1cc(NCCCCCCCNc2cc(C)nc3cc([N+](=O)[O-])ccc23)c2ccc([N+](=O)[O-])cc2n1" ?
Solution: 8.63 µM (inactive)

Problem: Query for SF-539: what GI50 does the record show for "O=c1[nH]nc(-c2ccccc2)n1-c1cccc([N+](=O)[O-])c1" ?
Solution: > 100 µM (inactive)

----------
Some molecules, each annotated with its measured GI50.
Test system: LOX IMVI
Experiment: NCI tumour cell line growth inhibition, 48 h
The source made the active and inactive calls. No stated cut-off is given here; in the data, active = GI50 up to about 1.1 µM and inactive = higher.

- molecule: "N#CCCN(CCC#N)c1ccc(/C=C2\\N=C(c3cc([N+](=O)[O-])ccc3Cl)OC2=O)cc1"
  measure.name: "GI50"
  value: "23.7 µM (inactive)"

Problem: Query for LOX IMVI: what GI50 does the record show for "CC(C)(c1ccc(Oc2ccc(C#N)c(C#N)c2)cc1)c1ccc(Oc2ccc(C#N)c(C#N)c2)cc1" ?
Solution: > 10 µM (inactive)

----------
Test system: DMS-273
Assay: NCI tumour cell line growth inhibition, 48 h
Calls of active or inactive are those of the source. Cut-off read from the data, not from the text of the source: active = GI50 up to about 1.1 µM and inactive = higher.
measure.name: GI50

These solved cases illustrate the format of a correct answer.
- molecule: "C[N+](C)(C)CC1CCCC/C1=N\\O (configuration not stated)"
  GI50: "> 100 µM (inactive)"
- molecule: "O=C1c2c(nc3ccccc3c2-c2ccccc2)CN1Nc1ccccn1"
  GI50: "> 89.9 µM (inactive)"
- molecule: "CC(C)(C)c1cc([Si](C)(C)C)c(C#N)c([Si](C)(C)C)c1"
  GI50: "49.1 µM (inactive)"
- molecule: "Clc1ccc2[nH]c(CCSCCc3nc4ccc(Cl)cc4[nH]3)nc2c1"
  GI50: "13.4 µM (inactive)"
- molecule: "COC(=O)C1=CCON(c2ccccc2)C1c1ccccc1 (configuration not stated)"
  GI50: "56.5 µM (inactive)"

Problem: Query for DMS-273: what GI50 does the record show for CC1=CP(=O)(OC(C)C)C=C(C)C1=C(Cl)Cl (configuration not stated) ?
Solution: 44.7 µM (inactive)

Problem: Query for DMS-273: what GI50 does the record show for COc1cc(C(C#N)NNC(=O)Cc2ccccc2)cc(OC)c1OC (configuration not stated) ?
Solution: > 100 µM (inactive)

Problem: Query for DMS-273: what GI50 does the record show for "C/C=C/C=C/C=C/C=C/C(=O)O" ?
Solution: > 100 µM (inactive)

Problem: Query for DMS-273: what GI50 does the record show for "O=c1cc(-c2ccccc2)[nH]c2cc(Cl)cc(Cl)c12" ?
Solution: 12.3 µM (inactive)

Problem: Query for DMS-273: what GI50 does the record show for "COc1ccccc1-n1c(C)nc2ccccc2c1=O" ?
Solution: > 100 µM (inactive)

Problem: Query for DMS-273: what GI50 does the record show for "O=C1C=C(Nc2ccc(Cl)cc2Cl)c2ccccc2C1=O" ?
Solution: 27.4 µM (inactive)

Problem: Query for DMS-273: what GI50 does the record show for CC(=O)Oc1cc(OC(C)=O)c(OC(C)=O)c2c1CC1C(=O)C3(CCc4ccccc43)C(=O)C1C2 (configuration not stated) ?
Solution: 18.1 µM (inactive)
